tested system: T1, human immunoglobulin E (hIgE) (human, UniProt P01854-1 1-428)
T1 construct: also called human IgE; Native IgE (Abcam)
T1 sequence (P01854 whole entry): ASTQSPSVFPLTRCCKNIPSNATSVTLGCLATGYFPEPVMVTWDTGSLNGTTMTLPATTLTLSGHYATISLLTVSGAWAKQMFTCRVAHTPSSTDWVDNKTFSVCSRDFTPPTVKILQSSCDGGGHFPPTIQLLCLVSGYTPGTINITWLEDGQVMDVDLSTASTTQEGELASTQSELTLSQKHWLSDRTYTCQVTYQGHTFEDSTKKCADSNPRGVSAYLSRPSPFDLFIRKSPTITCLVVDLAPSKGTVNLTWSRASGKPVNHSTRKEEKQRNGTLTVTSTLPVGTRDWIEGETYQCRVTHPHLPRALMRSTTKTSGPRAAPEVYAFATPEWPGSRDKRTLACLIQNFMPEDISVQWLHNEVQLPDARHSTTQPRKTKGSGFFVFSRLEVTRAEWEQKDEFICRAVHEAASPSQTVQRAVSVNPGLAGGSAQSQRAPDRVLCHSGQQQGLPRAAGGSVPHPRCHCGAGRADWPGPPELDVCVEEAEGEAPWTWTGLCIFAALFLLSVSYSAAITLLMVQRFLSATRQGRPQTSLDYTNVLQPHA
assay explanation: competition ELISA
Listed binders paired with reported Ratio pH 6/7.4 (IC50)
readout: Ratio pH 6/7.4 (IC50)

* 18B9 human IgG1 mAb (antibody, V domains shown, human IgG1 and human light chain constant domains; also called clone 18B9) VH: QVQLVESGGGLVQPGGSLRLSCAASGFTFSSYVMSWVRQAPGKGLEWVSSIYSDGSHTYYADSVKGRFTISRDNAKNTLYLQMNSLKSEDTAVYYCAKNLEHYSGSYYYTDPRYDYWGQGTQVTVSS VL: SSALTQPSALSVTLGQTAKITCQGGSLGSSYVHWYQQKPGQAPVLVIYDGDSRPSGIPERFSGSSSGGTATLTISGAQAEDEDDYYCQSADSSGNAVFGGGTHLTVL | 2.7
* 18E2 human IgG1 mAb (antibody, V domains shown, also called clone 18E2) VH: QLQLVESGGGLVQPGGSLRLSCAASGFTFSSYVMSWVRQAPGKGLEWVSSIYHDGSHTYYADFVKGRFTISRDNAKNTLYLQMNSLKSEDTAVYYCASGTSYSGSYYYTDPFFGSWGQGTQVTVSS VL: NFMLTQPSALSVTLGQTARITCQGDRLGSRYIYWYQQKPPQAPVLVIHDDDRRPSGIPERFSGSSSGGTATLTISGAQAEDDGDYYCQSADSSGNPVFGGGTHLTVL | 2.4
* 20D5 human IgG1 mAb (antibody, V domains shown, also called clone 20D5) VH: QLQLVESGGGLVQPGGSLRLSCAASGFAFSSYVMTWVRQAPGKGLEWVSSIYSDGSHTYYADSVKDRFTISRDNAKNTLFLQMNSLKSEDTAVYYCAKDAEYYSGSYYYTDTKYDYWGQGTQVTVSS VL: SSALTQPSALSVTLGQTAKITCQGGSLGSSYAHWYQQKPGQAPVLVIYADDSRPSGIPERFSGSSSGGTATLTISGAQAEDEGDYYCQSADSSGNAVFGGGTHLTVL | 1.1
